Source: patent US20250084056A1

target: Cyclin E1 (Homo sapiens, UniProt P24864+Q96SW2); assay: Cyclin E1 Cellular Degradation Assay (MSD); format: cell-based; parameters: endogenous in cells; host or cells: OVCAR3; conditions: selectivity for degradation of Cyclin E1 over GSPT1
Sequence (P24864 whole entry): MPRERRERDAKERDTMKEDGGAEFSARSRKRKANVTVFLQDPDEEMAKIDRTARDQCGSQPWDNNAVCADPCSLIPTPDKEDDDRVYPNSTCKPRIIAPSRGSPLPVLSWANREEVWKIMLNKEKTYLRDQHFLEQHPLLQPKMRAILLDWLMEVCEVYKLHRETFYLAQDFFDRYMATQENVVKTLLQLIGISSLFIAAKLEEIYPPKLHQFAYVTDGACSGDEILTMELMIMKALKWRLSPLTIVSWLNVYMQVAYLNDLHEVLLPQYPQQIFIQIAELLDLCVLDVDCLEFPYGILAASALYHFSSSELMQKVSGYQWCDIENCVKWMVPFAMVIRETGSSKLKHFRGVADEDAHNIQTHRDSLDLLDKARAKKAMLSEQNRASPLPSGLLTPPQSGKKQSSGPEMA
Sequence (Q96SW2 whole entry): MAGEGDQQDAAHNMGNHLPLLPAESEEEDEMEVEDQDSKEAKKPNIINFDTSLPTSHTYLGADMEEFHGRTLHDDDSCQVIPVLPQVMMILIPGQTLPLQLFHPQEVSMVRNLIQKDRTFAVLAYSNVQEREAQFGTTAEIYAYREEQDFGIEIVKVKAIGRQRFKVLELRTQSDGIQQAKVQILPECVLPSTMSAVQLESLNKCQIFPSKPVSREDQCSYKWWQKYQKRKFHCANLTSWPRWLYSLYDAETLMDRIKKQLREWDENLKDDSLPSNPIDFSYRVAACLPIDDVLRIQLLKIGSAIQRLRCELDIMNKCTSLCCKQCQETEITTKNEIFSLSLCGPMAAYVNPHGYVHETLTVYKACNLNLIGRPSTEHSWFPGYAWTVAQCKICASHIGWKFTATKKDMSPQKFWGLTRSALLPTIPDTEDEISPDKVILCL
Sequence (Q16531 whole entry partner): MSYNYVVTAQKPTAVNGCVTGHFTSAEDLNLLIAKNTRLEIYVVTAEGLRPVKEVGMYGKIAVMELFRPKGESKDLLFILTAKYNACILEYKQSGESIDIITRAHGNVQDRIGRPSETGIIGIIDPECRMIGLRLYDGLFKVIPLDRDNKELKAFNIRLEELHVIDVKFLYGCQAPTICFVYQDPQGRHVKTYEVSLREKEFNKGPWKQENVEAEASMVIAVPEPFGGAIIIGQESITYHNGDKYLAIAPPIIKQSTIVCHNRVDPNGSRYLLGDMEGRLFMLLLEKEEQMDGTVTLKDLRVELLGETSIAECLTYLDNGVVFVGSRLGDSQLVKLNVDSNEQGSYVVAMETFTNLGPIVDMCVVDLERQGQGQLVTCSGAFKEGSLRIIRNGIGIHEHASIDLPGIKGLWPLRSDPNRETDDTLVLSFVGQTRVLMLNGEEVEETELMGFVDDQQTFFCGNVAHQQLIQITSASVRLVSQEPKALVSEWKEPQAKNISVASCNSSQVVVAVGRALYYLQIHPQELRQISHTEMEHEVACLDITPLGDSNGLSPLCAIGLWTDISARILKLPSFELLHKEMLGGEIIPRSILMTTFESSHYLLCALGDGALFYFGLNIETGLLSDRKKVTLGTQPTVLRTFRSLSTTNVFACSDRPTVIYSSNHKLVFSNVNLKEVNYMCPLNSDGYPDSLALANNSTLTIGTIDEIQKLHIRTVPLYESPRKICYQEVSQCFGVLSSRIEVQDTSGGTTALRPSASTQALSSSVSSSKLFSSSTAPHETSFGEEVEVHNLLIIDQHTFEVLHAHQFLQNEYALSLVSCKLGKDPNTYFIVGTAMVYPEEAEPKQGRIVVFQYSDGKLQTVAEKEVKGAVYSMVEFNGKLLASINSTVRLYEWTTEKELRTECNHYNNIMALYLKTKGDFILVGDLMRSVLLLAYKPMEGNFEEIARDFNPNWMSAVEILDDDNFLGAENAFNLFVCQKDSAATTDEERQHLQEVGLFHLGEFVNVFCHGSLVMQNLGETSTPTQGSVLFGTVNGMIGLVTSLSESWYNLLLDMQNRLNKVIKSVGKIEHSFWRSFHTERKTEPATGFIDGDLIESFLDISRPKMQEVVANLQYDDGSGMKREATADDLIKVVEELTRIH
Ratio of GSPT1 DC50/Cyclin E1 DC50 values, listed per item

{"COMPOUND": "CC(C)(O)COc1c(COC(=O)Nc2ccc(Oc3ccc(F)cc3F)cc2F)ccc2c1C(=O)N(C1CCC(=O)NC1=O)C2 (stereo not shown)", "Ratio of GSPT1 DC50/Cyclin E1 DC50": ">921"}
{"COMPOUND": "COc1cc(Oc2ccccc2C(F)F)ccc1NC(=O)OCc1ccc2c(c1OC)C(=O)N(C1CCC(=O)NC1=O)C2 (stereo not shown)", "Ratio of GSPT1 DC50/Cyclin E1 DC50": ">69"}
{"COMPOUND": "COc1c(COC(=O)Nc2ccc(Oc3cc(F)c(F)c(F)c3)cc2Cl)ccc2c1C(=O)N(C1CCC(=O)NC1=O)C2 (stereo not shown)", "Ratio of GSPT1 DC50/Cyclin E1 DC50": ">76"}
{"COMPOUND": "O=C1CCC(N2Cc3ccc(COC(=O)Nc4ccc(Oc5cccc(F)c5)cc4)c(O[C@@H]4CCCOC4)c3C2=O)C(=O)N1 (stereo partly shown)", "Ratio of GSPT1 DC50/Cyclin E1 DC50": ">445"}
{"COMPOUND": "O=C1CCC(N2Cc3ccc(COC(=O)Nc4ccc(Oc5ccccc5)cc4)c(Oc4ccccc4)c3C2=O)C(=O)N1 (stereo not shown)", "Ratio of GSPT1 DC50/Cyclin E1 DC50": ">143"}
{"COMPOUND": "COc1c(COC(=O)Nc2ccc(Oc3ccccc3C3CC3)cc2)ccc2c1C(=O)N(C1CCC(=O)NC1=O)C2 (stereo not shown)", "Ratio of GSPT1 DC50/Cyclin E1 DC50": ">34"}
{"COMPOUND": "CCN(C)C(=O)COc1c(COC(=O)Nc2ccc(Oc3ccc(F)c(F)c3)cc2)ccc2c1C(=O)N(C1CCC(=O)NC1=O)C2 (stereo not shown)", "Ratio of GSPT1 DC50/Cyclin E1 DC50": ">47"}
